Data credit: paper PMC7594851

# Test: Parallel artificial membrane permeability assay (effective permeability, Pe)
# Format: in vitro ADME
# Details: PAMPA; Table S3: after dissolution of ETP or ETP/LMCs in water, or incorporation into the nanoemulsion; mean ± SD, n=6
# Experimental: A parallel artificial membrane permeability assay was performed using pre-coated 96-well plates designed for this assay (Corning, Corning, NY) according to the manufacturer’s instructions. Briefly, 300 µL PBS (pH 6.8) was added to the receiver plate, and 200 µL of each formulation diluted in PBS (pH 6.8) containing 100 µg/mL ETP was added to each well of the filter plate. […] The concentration of ETP that permeated through the artificial membrane was measured by HPLC at 254 nm. […]
Readout type: Papp at 5 h, 100 µg/mL

INSERT INTO measurements (molecule, value_measured) VALUES
  ('COc1cc([C@@H]2c3cc4c(cc3[C@@H](O[C@@H]3O[C@@H]5CO[C@@H](C)O[C@H]5[C@H](O)[C@H]3O)[C@H]3COC(=O)[C@H]23)OCO4)cc(OC)c1O [ETP, etoposide]', '0.251 ×10⁻⁶ cm/s');

###

# Test: Aqueous solubility of ETP and ETP/LMC complexes
# Type: physicochemical
# Details: water; mean ± SD, n=6
Readout type: solubility (µg/mL)

INSERT INTO results (compound, readout_type, measure_unit, value_measured) VALUES
  ('COc1cc([C@@H]2c3cc4c(cc3[C@@H](O[C@@H]3O[C@@H]5CO[C@@H](C)O[C@H]5[C@H](O)[C@H]3O)[C@H]3COC(=O)[C@H]23)OCO4)cc(OC)c1O [ETP, etoposide]', 'solubility', 'µg/mL', 230);
